- ASSAY_PROCEDURE: protease stability score; higher = more stable; yeast display proteolysis, trypsin and chymotrypsin;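 note: relative to predicted unfolded state with 0 unfolded-like and 1 meaning tenfold more protease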
I'd appreciate it if you could supply protease stability score values for the items below.

Could you report protease stability score for every entry in the following list?
1. SSDKRDAHFAMDLYYEIHLTGDEDRWRHMADPNVRLHVGEKDFHGRELWFKFMHDFGLDKIEIELKDIEVQGEKVHLDGIIRFDGREHKVEVDLRKINGRWIIDEERYK
2. DEDHKLAEHFIRLLSEKIETGDEDSYKEMVDPNVRIEIGDKEYHGRDEATRVMKEIRERVKNMRIEIHEIHIQGDKVHVRRIDKVGDKEIEKHLIVLKFDGRWVIERERVH
3. DEDEKRSEEFLNEFFHWVHTGDEEKLVKLMDPHMRLDVNGKESVGRENAFEMWHHLRIRRMDVRDIRVELVGDKAIARSDGHIDGEIDGVRIHTRVDLLLISRKVDGVWLFKSVSINSI
4. HEDERLMKEALEMIIESFRTGDEHTIEELADPHARVIVGDKHHHGWHELLKRVLELGVKHVNVRDMRVIGDKLEVKLELHVGDKTFDSRLHVLKVNGKWHIQFVEIH
5. DNDQEKIKELARLAEQVMQTGNEKLLRELFDPHARIDIDGKTLHGWKDLLEFTRHELERIDHVVFTVRRVDLQGDKVRVETEVNIDINGKKMTLETTLLIDKFDGRWFLRTIEWE
6. DHEEKLYELEIRLLQEIVETGDEETSHRLADPHARLNINGRHLVGREHFREFVHKIKGARLDIEEVRVQGDKVIIHGRWIQGDKELDVDFISRKIDGKWKFHSIHVH

RESULT:
1: 1.13; 2: 1.19; 3: 2.23; 4: 1.75; 5: 1.8; 6: 1.33

###

Hi there, I'd appreciate the recorded protease stability score for every entry that follows.
- ASSAY_PROCEDURE: protease stability score; higher = more stable; yeast display proteolysis, trypsin and chymotrypsin;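 note: relative to predicted unfolded state with 0 unfolded-like and 1 meaning tenfold more protease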
Give bare numbers.

MONOMER_SEQUENCE	TEST_VALUE
SEIEHVVKRAIKIFIEVLETGDWELMWRLLDPHVRIEVGNKEKHGRHTIEEMIRRVDHIHINERQIHDIEIQGDKVHLHIHLNVEERVGDKRLNFEFELHIIAEKVNGRWIVRSVTIK	1.62
DELKDIMREVAEIIIRLEHTGDWRVFRKMADPNVRIDIGDFHIIGREEWRHWIEELRERIKNLKVEIRITHIESQGDKVHSDTRLIIRFDGVTEERTQHLHFVIVDGRVTSVRYENR	0.009

QUERY: I'd like to know its protease stability score. The sequence in question is SEDEEHAEFFNRLLAESLMTGDWRTIANLLDPHVRVRVGDKQHHGREQVIHLLTKLLEDWGLERVHIHLRELRVINGRIHTRNELHVGDKTVDVKVHTRKIDGRWVIEEIEFR
RESULT: 1.16

###

Please respond with reported protease stability score for every item in the list.
- ASSAY_PROCEDURE: protease stability score; higher = more stable; yeast display proteolysis, trypsin and chymotrypsin;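 note: relative to predicted unfolded state with 0 unfolded-like and 1 meaning tenfold more protease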
Answers are plain numbers.

Before answering, review these 3 worked examples.
MONOMER_SEQUENCE	protease stability score
DDRIRQVVEEWWKAVETNDPDKAKENVDKDVRVEVGDKQFRGSETLEKRIRDEKDHARVVVRMQSVSVHGDTVDVTYNVVVEVNGNPLRFKAQAFFRARNGRMQSIQFSFSKEDKKRVDG	1.78
DEEEHHIKTLLELHWEIWKTGDEDRFRELADPNTKLIVNGREVIGRERVAKVIHDILRHMRFHDFTLERDKIYNGQVDLHGTEYGHINGKNIERTHVFHIVIVNGVLKSIELRIH	1.01
DEEDEQREHLLELLFHFLRTGDEELLFRLADPRVRHVWNGRELHGRELVIEILDDELEKMGANHIHIDLERVRMVDGRLDVDGHIVIKIGDKSHFFDMHFHIRKIDGRWVIKDLTIR	0.853

State the recorded protease stability score for every item in the following list.
1. TELDEQVTEVFKINERLKQTGDWKKIIDYVDPHARVEIGEFRDHGRDAAEFTMKYLGIDHFELKRVHLQGNKLHIHGELTVDGRLIHLIIISEKVDGRWITKSMTVD
2. DEHEMEIRDFIDKFLQSLRTGDEEKVHKLIDPHVRTQIDGQEFHGREEFLRFLRTHLERLGVDHIDVDLQQIEIVGEKINIHGTLTIEIDGRYLRHTFHLRVEKVNGKWIIESIRMT
3. DEDKDKVRRWAEDFIRDLTTGDFDSLRREADPNYRIEVNGQDHHGMEFHLWVLDHLGLDNIHTELRDSEVQGDKAHNDIRITYNGKEMTVILIVDKVNGKWFVRKIRIE

RESULT:
[0.01, 2.15, 1.72]

Source listed as the NTF2 design screens of Basanta et al. (2020).
